- Tested on: SW480
- Test description: drug sensitivity score (DSS, integrated dose-response area); higher = more sensitive (stronger viability reduction); extreme values may be limits of the assay
- Measurement parameters: shRNA: SND1 shRNA1 (SND1 silenced)
Parameter: drug sensitivity score (DSS)
Write the value in DSS as a bare number.

Some solved cases for reference:
I'm curious: which drug sensitivity score was measured for `CCNC(=O)C[C@@H]1N=C(c2ccc(Cl)cc2)c2cc(OC)ccc2-n2c(C)nnc21` tested on SW480?
2.7

I'm curious: which drug sensitivity score was measured for COc1ccc(COc2cc3oc(=O)c4cc(C(C)O)ccc4c3cc2OC)cc1 (configuration not stated) [Palomid-529] tested on SW480?
0

I'm curious: which drug sensitivity score was measured for `O=C(O)c1ccc(CN2CCC(CN[C@@H]3C[C@H]3c3ccccc3)CC2)cc1` tested on SW480?
0

I'm curious: which drug sensitivity score was measured for CC[C@H](NC(=O)[C@H](C)NC)C(=O)N1C[C@@H](O)C[C@H]1Cc1c(-c2[nH]c3cc(F)ccc3c2C[C@@H]2C[C@H](O)CN2C(=O)[C@H](CC)NC(=O)[C@H](C)NC)[nH]c2cc(F)ccc12 [Birinapant] tested on SW480?
0

I'm curious: which drug sensitivity score was measured for c1ccc(Cn2c(-c3ccc(OC[C@H](C4CCNCC4)n4c(-c5ccccc5)nc5ccccc54)cc3)nc3ccccc32)cc1 [deltarasin] tested on SW480?
5.7

Next:
I'm curious: which drug sensitivity score was measured for COc1ccccc1S(=O)(=O)Nc1ccc2c(c1)CN(C)C(=O)N2 [PFI-1] tested on SW480?
1.8

I'm curious: which drug sensitivity score was measured for Cc1nc(NC(=O)N2CCC[C@H]2C(N)=O)sc1-c1ccnc(C(C)(C)C(F)(F)F)c1 [Alpelisib] tested on SW480?
2.8

----------
- System: SW480
- Test description: drug sensitivity score (DSS, integrated dose-response area); higher = more sensitive (stronger viability reduction); extreme values may be limits of the assay
- Measurement parameters: shRNA: SND1 shRNA1 (SND1 silenced)
Parameter: drug sensitivity score (DSS)
Write the value in DSS as a bare number.

Some solved cases for reference:
Record request: drug sensitivity score value, item Cc1c(N)nc([C@H](CC(N)=O)NC[C@H](N)C(N)=O)nc1C(=O)N[C@H](C(=O)N[C@H](C)[C@@H](O)[C@H](C)C(=O)N[C@H](C(=O)NCCc1nc(-c2nc(C(=O)NCCC[S+](C)C)cs2)cs1)[C@@H](C)O)[C@@H](OC1OC(CO)C(O)C(O)C1OC1OC(CO)C(O)C(OC(N)=O)C1O)c1cnc[nH]1 (some centres not stated)
4.8

Record request: drug sensitivity score value, item `C[C@@H](Nc1cc(F)cc(F)c1)c1cc(C(=O)N(C)C)cc2c(=O)cc(N3CCOCC3)oc12`
0

Record request: drug sensitivity score value, item `CCN(CC)CCOc1ccc(C(=C(Cl)c2ccccc2)c2ccccc2)cc1`
7

Record request: drug sensitivity score value, item `c1cn2cc(-c3ccc4cn[nH]c4c3)nc(Nc3ccc(N4CCOCC4)cc3)c2n1`
0

Record request: drug sensitivity score value, item CC(O)(CS(=O)(=O)c1ccc(F)cc1)C(=O)Nc1ccc(C#N)c(C(F)(F)F)c1 (configuration not stated) [Bicalutamide]
0.4

Next:
Record request: drug sensitivity score value, item `N#Cc1ccc2[nH]c(O)c(-c3ccc(CN4CCOCC4)cn3)c2c1`
1.3

Record request: drug sensitivity score value, item `Cn1ncc(Cl)c1-c1cc(C(=O)N[C@H](CN)Cc2cccc(F)c2)sc1Cl`
0
